Some compounds, each annotated with its measured pIC50.
Biological target: SARS-CoV-2 3CL protease (Severe acute respiratory syndrome coronavirus 2)
Experiment: Inhibitory activity test against SARS-CoV-2 3CL proteases
Format: biochemical
Conditions: read-out: IC50 (50% SARS-CoV-2 3CL protease inhibitory concentration)
Value format note: pIC50 is -log10 of concentration (mol/L); just state the number.

// query What value of measured pIC50 is listed for CC1COc2c1c(-c1cc(C#N)ccc1Cl)cc1c2c(=O)n(Cc2ncn(C)n2)c(=O)n1Cc1cc(F)c(F)c(F)c1 (stereo not shown) ?
// result 8.46

// query GET /values?readout=pIC50&item= COc1cc(-c2cc3c(cc2Cl)NC(=O)C3)cc2c1c(=O)n(-c1cncc(C)c1)c(=O)n2Cc1cc(C#N)c(F)cc1C
// result 9.14

// query Need pIC50, item COc1cc(-c2cc(C#N)ccc2Cl)cc2c1c(=O)n(-c1cncc(C)c1)c(=O)n2Cc1cc(C#N)c(F)cc1C
// result 8.92

// query Give the measured pIC50 of Cn1cnc(Cn2c(=O)c3c4ncn(C)c4c(-c4cc(C#N)ccc4Cl)cc3n(Cc3cc(F)c(F)c(F)c3)c2=O)n1 .
// result 9.03

// query Tell me the measured pIC50 of Cn1cnc(Cn2c(=O)c3c4occc4c(-c4cc(C#N)ccc4Cl)cc3n(Cc3cc(F)c(F)c(F)c3)c2=O)n1 , please.
// result 8.39

// query Look up pIC50 for this compound: Cn1cnc(Cn2c(=O)c3c(Cl)cc(-c4cc5c(cc4Cl)NC(=O)C5)cc3n(Cc3cc(F)c(F)c(F)c3)c2=O)n1
// result 8.07

// query Which pIC50 value belongs to N#Cc1ccc(Cl)c(-c2cc3c(c(=O)n(-c4cncc(Cl)c4)c(=O)n3Cc3cc(F)c(F)c(F)c3)c3occc23)c1 ?
// result 8.28

###

Molecular target: SARS-CoV-2 3CL protease (Severe acute respiratory syndrome coronavirus 2, UniProt P0DTD1)
Experiment: Inhibitory activity test against SARS-CoV-2 3CL proteases
Format: biochemical
Conditions: read-out: IC50 (50% SARS-CoV-2 3CL protease inhibitory concentration)
parameter: pIC50
Hey, just a heads up that pIC50 is the negative log base 10 of the concentration in molar.

Worked examples, 4 molecules total:
                                   molecule  reported_result
0  COc1cc(-c2cc3c(cc2Cl)NC(=O)CC3)cc2c1c(=O)n(Cc1ncn(C)n1)c(=O)n2Cc1cc(F)c(F)c(F)c1 [Compound I-0125]             7.49
1  COc1cc(-c2cc(C(C)(C)O)ccc2Cl)cc2c1c(=O)n(-c1cncc(C)c1)c(=O)n2Cc1ccc(F)c(C#N)c1 [Compound I-0061]             8.54
2  COc1cc(-c2cc(C(C)(C)O)ccc2Cl)cc2c1c(=O)n(-c1cncc(Cl)c1)c(=O)n2Cc1cc(F)c(F)c(F)c1 [Compound I-0075]             7.74
3  COc1nc(N2CC[C@@H](CO)C2)cc2c1c(=O)n(-c1cnc3cc(F)ccn13)c(=O)n2-c1ccc(F)c(Cl)c1 [Compound I-0750]             8.21

// query # input molecule: COc1cc(-c2c(Cl)ccc3c2CCN(C)C3=O)cc2c1c(=O)n(Cc1ncn(C)n1)c(=O)n2Cc1cc(F)c(F)c(F)c1 [Compound I-0867] ; wanted: its pIC50
// result 8.92

// query Name the reported pIC50 value associated with the molecule COc1cc(-c2cc(CC(=O)NCCS(C)(=O)=O)ccc2Cl)cc2c1c(=O)n(-c1cncc(Cl)c1)c(=O)n2Cc1cc(F)c(F)c(F)c1 [Compound I-0202]
// result 7.70

// query I would be grateful if you could share the reported pIC50 for COc1cc(-c2cc(P(C)(C)=O)ccc2Cl)cc2c1c(=O)n(Cc1ncn(C)n1)c(=O)n2Cc1cc(F)c(F)c(F)c1 [Compound I-0893] .
// result 7.44

// query // pIC50 lookup, key: COc1cc(-c2cc3cn[nH]c3cc2Cl)cc2c1c(=O)n(Cc1ncn(C)n1)c(=O)n2Cc1cc(F)c(F)c(Cl)c1 [Compound I-0264]
// result 8.59

// query Consider the molecule CNC(=O)c1ccc(Cl)c(-c2cc3c(nc2OC)c(=O)n(Cc2ncn(C)n2)c(=O)n3Cc2cc(F)c(F)c(Cl)c2)n1 [Compound I-0878] and give its measured pIC50.
// result 8.41
